- targetDesc: Prostaglandin G/H synthase 2 (Homo sapiens, UniProt P35354)
- Sequence (P35354 whole entry): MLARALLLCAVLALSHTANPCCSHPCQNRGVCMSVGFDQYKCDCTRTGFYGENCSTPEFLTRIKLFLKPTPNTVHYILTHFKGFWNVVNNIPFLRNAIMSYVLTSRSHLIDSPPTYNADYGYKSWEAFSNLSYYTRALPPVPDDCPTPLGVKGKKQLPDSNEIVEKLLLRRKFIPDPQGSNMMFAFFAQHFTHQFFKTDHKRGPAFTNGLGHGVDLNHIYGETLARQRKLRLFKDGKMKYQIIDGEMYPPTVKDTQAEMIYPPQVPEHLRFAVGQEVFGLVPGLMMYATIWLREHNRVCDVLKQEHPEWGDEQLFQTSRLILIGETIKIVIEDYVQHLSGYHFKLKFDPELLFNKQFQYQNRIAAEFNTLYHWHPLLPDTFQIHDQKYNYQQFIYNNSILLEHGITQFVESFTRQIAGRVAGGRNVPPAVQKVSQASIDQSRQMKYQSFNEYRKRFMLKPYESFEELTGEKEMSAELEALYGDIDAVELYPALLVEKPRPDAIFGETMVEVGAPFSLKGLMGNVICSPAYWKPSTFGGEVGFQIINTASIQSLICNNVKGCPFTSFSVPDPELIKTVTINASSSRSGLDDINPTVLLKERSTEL
- testSummary: Inhibition of recombinant human COX-2 using arachidonic acid as substrate preincubated with compound for 5 mins followed by substrate addition and measured after 2 mins by fluorescence spectrum analysis

>  <smi>
CCOC(=O)[C@H](CO)NC(=O)c1cccc(O)c1O

>  <IC50 (µM)>
2.22

$$$$

====

- targetDesc: Prostaglandin G/H synthase 2 (Ovis aries, UniProt P79208)
- Sequence (P79208 whole entry): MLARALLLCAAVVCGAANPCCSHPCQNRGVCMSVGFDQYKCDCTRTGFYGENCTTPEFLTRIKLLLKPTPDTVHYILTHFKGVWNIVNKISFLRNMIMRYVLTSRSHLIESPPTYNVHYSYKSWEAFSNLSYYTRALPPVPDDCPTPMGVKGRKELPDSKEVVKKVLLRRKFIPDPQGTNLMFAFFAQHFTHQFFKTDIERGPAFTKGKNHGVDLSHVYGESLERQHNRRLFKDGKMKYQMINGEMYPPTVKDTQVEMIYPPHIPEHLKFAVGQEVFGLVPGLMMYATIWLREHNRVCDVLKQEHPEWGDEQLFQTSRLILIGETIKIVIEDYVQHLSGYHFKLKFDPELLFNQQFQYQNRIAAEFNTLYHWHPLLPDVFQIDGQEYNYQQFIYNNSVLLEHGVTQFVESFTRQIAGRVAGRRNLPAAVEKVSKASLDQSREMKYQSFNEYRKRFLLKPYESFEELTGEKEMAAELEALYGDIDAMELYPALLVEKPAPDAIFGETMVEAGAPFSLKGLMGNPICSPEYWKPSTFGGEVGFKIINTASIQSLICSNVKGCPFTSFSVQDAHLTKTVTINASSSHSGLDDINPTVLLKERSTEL
- testSummary: Inhibition of ovine COX-2 assessed as reduction in PGF2alpha production by enzyme immunoassay
pIC50: −log10 of the molar value.

>  <smi>
CCOC(=O)[C@H](CO)NC(=O)c1cccc(O)c1O

>  <pIC50>
5.55

$$$$
